Target: JAK2 JH2 WT (V536-D812) [W659A, W777A, F794H solubilizing mutations] (Homo sapiens, UniProt O60674, F794H/W659A/W777A)
Construct: **JAK2 JH2 WT (V536-D812) [W659A, W777A, F794H solubilizing mutations]; C-thrombin-avi-His6; thrombin cleavage site (C); His6 (C); purchased Biortus
Sequence (O60674 536-812 W659A/W777A/F794H): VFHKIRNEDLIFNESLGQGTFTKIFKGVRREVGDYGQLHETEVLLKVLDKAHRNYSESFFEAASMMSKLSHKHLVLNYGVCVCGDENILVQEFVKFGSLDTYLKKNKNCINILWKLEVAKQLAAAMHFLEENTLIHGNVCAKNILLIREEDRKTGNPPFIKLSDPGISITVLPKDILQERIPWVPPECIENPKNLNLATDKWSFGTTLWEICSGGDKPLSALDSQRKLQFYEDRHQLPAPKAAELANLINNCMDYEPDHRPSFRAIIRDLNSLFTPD
Test: Surface Plasmon Resonance (SPR) binding assay, JAK2 JH2 domain
Details: SPR, JAK2 JH2 domain
Description: Selected compounds of the present disclosure were tested in a Surface Plasmon Resonance (SPR) Assay to measure their binding kinetics and affinity for proteins of interest. Prepare buffer: 50 mM HEPES pH 7.5, 150 mM NaCl, 0.05% (v/v) Tween, and 10% (v/v) glycerol were combined and pH was adjusted to 7.5, then filtered. 5 mM DTT, was added, and buffer without DMSO was reserved for compound resuspension. […]
measurement_kind: Kd

• CNC(=O)c1nnc(NC(=O)C2CC2)cc1Nc1cccc(-c2cnn(C3CN(Cc4cccnn4)C3)c2)c1OC = 0.01 to 10 nM
• CNC(=O)c1nnc(NC(=O)C2CC2)cc1Nc1cccc(-c2ccc(C(=O)N(C)Cc3ccc(N(C)C)nc3)nc2)c1OC = 10 to 50 nM
• CNC(=O)c1nnc(NC(=O)C2CC2)cc1Nc1cccc(-c2ccc(C(=O)N(C)Cc3ccn(C)n3)nc2)c1OC = 0.01 to 10 nM
• CNC(=O)c1nnc(NC(=O)C2CC2)cc1Nc1cccc(-c2ncc(NC(=O)Cc3cccn(C)c3=O)cn2)c1OC = 0.01 to 10 nM
• CNC(=O)c1nnc(NC(=O)C2CC2)cc1Nc1cccc(-c2cnn(C3CN([C@H](C)c4ccccn4)C3)c2)c1OC (single isomer, unassigned) = 0.01 to 10 nM
• CNC(=O)c1nnc(NC(=O)C2CC2)cc1Nc1cccc(-c2ccc(C(=O)N(C)C[C@@H]3Cc4ccccc4CO3)nc2)c1OC (single isomer, unassigned) = 10 to 50 nM

* * *

target: JAK2 JH2 WT (V536-D812) [W659A, W777A, F794H solubilizing mutations] (Homo sapiens, UniProt O60674, F794H/W659A/W777A); construct: **JAK2 JH2 WT (V536-D812) [W659A, W777A, F794H solubilizing mutations]; C-thrombin-avi-His6; thrombin cleavage site (C); His6 (C); purchased Biortus; experiment: Surface Plasmon Resonance (SPR) binding assay, JAK2 JH2 domain; conditions: SPR, JAK2 JH2 domain
measurement_kind: Kd

• CNC(=O)c1nnc(NC(=O)C2CC2)cc1Nc1cccc(-c2ccc(C(=O)N(C)Cc3cc(Cl)ccc3OC)nc2)c1OC [Compound 82] = 0.01 to 10 nM
• CNC(=O)c1nnc(NC(=O)C2CC2)cc1Nc1ccc(C)c(-c2ccc(C(=O)N(C)Cc3cc(C#N)ccn3)nc2)c1OC [Compound 33] = 0.01 to 10 nM
• CNC(=O)c1nnc(NC(=O)C2CC2)cc1Nc1cccc(-c2cnn(C3CN(Cc4cccc(F)n4)C3)c2)c1OC [Compound 142] = 0.01 to 10 nM
• CNC(=O)c1nnc(NC(=O)C2CC2)cc1Nc1cccc(-c2cnn(C3CN(Cc4ccn(C)n4)C3)c2)c1OC [Compound 41] = 0.01 to 10 nM
• CNC(=O)c1nnc(NC(=O)C2CC2)cc1Nc1ccc(C)c(-c2cnc(C(=O)N(C)Cc3ccccn3)c(F)c2)c1OC [Compound 43] = 0.01 to 10 nM
• CNC(=O)c1nnc(NC(=O)C2CC2)cc1Nc1cccc(-c2nnc(C3CN(Cc4cccc(C)n4)C3)o2)c1OC [Compound 157] = 0.01 to 10 nM
• CNC(=O)c1nnc(NC(=O)C2CC2)cc1Nc1cccc(-c2cnc(C(=O)N(C)Cc3nn(C)cc3Br)nc2)c1OC [Compound 56] = 0.01 to 10 nM

* * *

Target: JAK2 JH2 WT (V536-D812) [W659A, W777A, F794H solubilizing mutations] (Homo sapiens, UniProt O60674, F794H/W659A/W777A)
Construct: **JAK2 JH2 WT (V536-D812) [W659A, W777A, F794H solubilizing mutations]; C-thrombin-avi-His6; thrombin cleavage site (C); His6 (C); purchased Biortus
Assay: Surface Plasmon Resonance (SPR) binding assay, JAK2 JH2 domain
Settings: SPR, JAK2 JH2 domain
Method: Selected compounds of the present disclosure were tested in a Surface Plasmon Resonance (SPR) Assay to measure their binding kinetics and affinity for proteins of interest. Prepare buffer: 50 mM HEPES pH 7.5, 150 mM NaCl, 0.05% (v/v) Tween, and 10% (v/v) glycerol were combined and pH was adjusted to 7.5, then filtered. 5 mM DTT, was added, and buffer without DMSO was reserved for compound resuspension. […]
# Kd annotations
measurement_kind: Kd

• [2H]C([2H])(c1cccc(C#N)n1)N1CC(n2cc(-c3cccc(Nc4cc(NC(=O)C5CC5)nnc4C(=O)NC)c3OC)cn2)C1 [Compound 409] = 0.01 to 10 nM
• [2H]C([2H])(c1cccnn1)N1CC(n2cc(-c3cccc(Nc4cc(NC(=O)C5CC5)nnc4C(=O)NC)c3OC)cn2)C1 [Compound 408] = 0.01 to 10 nM
• [2H]C([2H])([2H])NC(=O)c1nnc(NC(=O)C2CC2)cc1Nc1cccc(-c2cnc(C(=O)N(C)Cc3ccn(C)n3)nc2)c1OC [Compound 62] = 0.01 to 10 nM
• CNC(=O)c1nnc(NC(=O)C2CC2)cc1Nc1cccc(-c2ccc(C(=O)N(C)Cc3cccn(C)c3=O)nc2)c1OC [Compound 23] = 0.01 to 10 nM
• CNC(=O)c1nnc(NC(=O)C2CC2)cc1Nc1cccc(-c2cnc(C(=O)N(C)Cc3ccn(C)n3)c(C#N)c2)c1OC [Compound 92] = 0.01 to 10 nM
• CNC(=O)c1nnc(NC(=O)C2CC2)cc1Nc1ccc(C)c(-c2cnn(C3CN(Cc4cc(C#N)ccn4)C3)c2)c1OC [Compound 68] = 0.01 to 10 nM
• CNC(=O)c1nnc(NC(=O)C2CC2)cc1Nc1cccc(-c2cnn(C3CN(Cc4ncccn4)C3)c2)c1OC [Compound 70] = 0.01 to 10 nM
• CNC(=O)c1nnc(NC(=O)C2CC2)cc1Nc1cccc(-c2cnn(C3CN(Cc4csnn4)C3)c2)c1OC [Compound 173] = 0.01 to 10 nM
• CNC(=O)c1nnc(NC(=O)C2CC2)cc1Nc1cccc(-c2ccc(C(=O)N(C)[C@H](C)c3cnn(C)c3)nc2)c1OC (single isomer, unassigned) [Compound 115] = 10 to 50 nM
• CNC(=O)c1nnc(NC(=O)C2CC2)cc1Nc1cccc(-c2cnn(C3CN(Cc4cccc(OC)n4)C3)c2)c1OC [Compound 107] = 0.01 to 10 nM
• CNC(=O)c1nnc(NC(=O)C2CC2)cc1Nc1cccc(-c2ccc(C(=O)N(C)Cc3cc(C#N)ccn3)nn2)c1OC [Compound 35] = 0.01 to 10 nM
• CNC(=O)c1nnc(NC(=O)C2CC2)cc1Nc1cccc(-c2cnn(C3CN(Cc4nccs4)C3)c2)c1OC [Compound 122] = 0.01 to 10 nM
• CNC(=O)c1nnc(NC(=O)C2CC2)cc1Nc1cccc(-c2ccc(C(=O)N(C)Cc3cc(S(C)(=O)=O)ccn3)cc2)c1OC [Compound 73] = 0.01 to 10 nM
• CNC(=O)c1nnc(NC(=O)C2CC2)cc1Nc1cccc(-c2ccc(C(=O)N(C)Cc3c(C)ccnc3C)nc2)c1OC [Compound 133] = 0.01 to 10 nM
• CNC(=O)c1nnc(NC(=O)C2CC2)cc1Nc1cccc(-c2ccc(C(=O)N(C)Cc3ccccn3)nc2)c1OC [Compound 19] = 0.01 to 10 nM
• CNC(=O)c1nnc(NC(=O)C2CC2)cc1Nc1cccc(-c2ccc(C(=O)N(C)Cc3cn4c(n3)CCCC4)nc2)c1OC [Compound 84] = 10 to 50 nM
• CNC(=O)c1nnc(NC(=O)C2CC2)cc1Nc1cccc(-c2ccc(C(=O)N(C)Cc3cncs3)nc2)c1OC [Compound 60] = 10 to 50 nM
• CNC(=O)c1nnc(NC(=O)C2CC2)cc1Nc1cccc(-c2cnc(C(=O)N(C)Cc3ccon3)c(F)c2)c1OC [Compound 98] = 0.01 to 10 nM
• CNC(=O)c1nnc(NC(=O)C2CC2)cc1Nc1cccc(-c2cnn(C3CN(Cc4cccc(C#N)n4)C3)c2)c1OC [Compound 147] = 0.01 to 10 nM
• CNC(=O)c1nnc(NC(=O)C2CC2)cc1Nc1cccc(-c2cc(C3CN(Cc4cccc(C#N)n4)C3)nn2C)c1OC [Compound 191] = 10 to 50 nM
• CNC(=O)c1nnc(NC(=O)C2CC2)cc1Nc1cccc(-c2ccc(C(=O)N(C)[C@H](C)c3ccn(C)n3)nc2)c1OC (single isomer, unassigned) [Compound 161] = 0.01 to 10 nM
• CNC(=O)c1nnc(NC(=O)C2CC2)cc1Nc1cccc(-c2cnc(C(=O)N(C)Cc3ccn(C)n3)c(F)c2)c1OC [Compound 53] = 0.01 to 10 nM
• CNC(=O)c1nnc(NC(=O)C2CC2)cc1Nc1cccc(-c2cnc(C(=O)N(C)Cc3cc(C#N)ccn3)cc2C2CC2)c1OC [Compound 153] = 0.01 to 10 nM
• CNC(=O)c1nnc(NC(=O)C2CC2)cc1Nc1cccc(-c2ccc(C(=O)N(C)Cc3cnsc3)nc2)c1OC [Compound 195] = 0.01 to 10 nM
• CNC(=O)c1nnc(NC(=O)C2CC2)cc1Nc1cccc(-c2cnc(C(=O)N(CCF)Cc3cccn(C)c3=O)c(F)c2)c1OC [Compound 22] = 0.01 to 10 nM
• CNC(=O)c1nnc(NC(=O)C2CC2)cc1Nc1cccc(-c2ccc(C(=O)N(C)Cc3cc(C#N)ccn3)nc2C2CC2)c1OC [Compound 137] = 10 to 50 nM
